Readings of melting point for the listed compounds

Recorded results for 9 compounds are shown here.
- Compound String: "Cl.N=C(NC(=N)N1CCCCCC1)NC1CCCC1"
  melting point: "224 to 225 °C"
- Compound String: "Cl.N=C(NCc1ccc(F)c(F)c1)NC(=N)N1CCCCC1"
  melting point: "230 to 232 °C"
- Compound String: "Cl.N=C(NCc1ccc(OC(F)(F)F)c(F)c1)NC(=N)N1CCCCC1"
  melting point: "266 to 268 °C"
- Compound String: "Cl.N=C(NC(=N)N1CCCCC1)NC1CCCCCC1"
  melting point: "237 to 238 °C"
- Compound String: "Cl.N=C(NCCc1ccccc1)NC(=N)N1CCCC1"
  melting point: "213 to 215 °C"
- Compound String: "Cl.N=C(NCc1ccc(Br)cc1)NC(=N)N1CCCCC1"
  melting point: "261 to 262 °C"
- Compound String: "Cl.N=C(NC(=N)N1CCCCC1)NC1CCCC1"
  melting point: "154 to 155 °C"
- Compound String: "Cl.N=C(NCc1ccc(OC(F)(F)F)cc1)NC(=N)N1CCCC1"
  melting point: "242 to 243 °C"
- Compound String: "Cl.N=C(NCc1ccc(C(F)(F)F)cc1)NC(=N)N1CCC1"
  melting point: "260 to 261 °C"

With those in mind, consider the next compound.
Prompt: Any idea what its melting point is? The compound is `Cl.N=C(NCCc1ccccc1)NC(=N)N1CCCCC1`
Response: 235 to 237 °C
